Measured values drawn from paper PMC7719400 for this set.

# TARGET_OR_TEST_SYSTEM: ORFV125 lacking the 30 C-terminal residues (orf virus)
# EXPERIMENT_SUMMARY: ITC
In this section, each of the binders is paired with its reported Kd.

# BINDER, Kd / nM
records = [
    ("EEQWAREIGAQLRRMADDLNAQYERR [Puma BH3 motif peptide (human, 130-155)]", 1750),
    ("PSSTMGQVGRQLAIIGDDINRRYDSE [Bak BH3 motif peptide (human, 67-92)]", 5800),
    ("VPQDASTKKLSECLKRIGDELDSNMELQ [Bax BH3 motif peptide (human, 50-77, 28-mer)]", 682),
]
